- tested on: T1, hen egg-white lysozyme (hen, UniProt P00698 19-147)
- T1 construct: also called HEL
- T1 sequence (P00698 19-147): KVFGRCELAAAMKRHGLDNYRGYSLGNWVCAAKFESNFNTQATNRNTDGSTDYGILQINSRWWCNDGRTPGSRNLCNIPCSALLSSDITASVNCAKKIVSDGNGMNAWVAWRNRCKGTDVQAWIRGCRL
- test protocol: fluorescence titration in solution, 0.3 µM conjugate, buffer C, 25 °C (fit R = 0.72)
pKd: −log10 of the molar value.

binder	pKd
H4S conjugate, IANBD fluorophore coupled at position Trp22 (designed binder, Cys at position 22 (H4S numbering) coupled to IANBD ester (ANBD)) MRGSHHHHHHGSVKVKFFWNGEEKEVDTSKIVCVKRAGKSVLFIYDDNGKNGYGDVTEKDAPKELLDMLARAEREKKLN	5.91
